tested.on: T1, monkey GPC3-His protein (monkey)
T1 construct: Bought protein; also called monkey GPC3 protein
experiment.notes: ELISA, monkey GPC3-His coated; antibody 0.0008 nM
measured.attribute: OD450 nm

Reference set (2 entries):
- hAb007LH2L1b (antibody, human IgG1, V domains shown, Humanized F3.81.19, H2+L1b) VH: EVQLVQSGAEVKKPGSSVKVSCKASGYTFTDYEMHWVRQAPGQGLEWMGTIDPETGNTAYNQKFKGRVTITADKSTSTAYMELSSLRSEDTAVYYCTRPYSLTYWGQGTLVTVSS VL: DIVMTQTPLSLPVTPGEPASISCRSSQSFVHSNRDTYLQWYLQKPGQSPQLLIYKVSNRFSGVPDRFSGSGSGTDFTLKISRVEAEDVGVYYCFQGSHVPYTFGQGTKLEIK: 0.08
- hAb001H1L1a (antibody, human IgG1, V domains shown, Humanized F2.169.2, H1+L1a) VH: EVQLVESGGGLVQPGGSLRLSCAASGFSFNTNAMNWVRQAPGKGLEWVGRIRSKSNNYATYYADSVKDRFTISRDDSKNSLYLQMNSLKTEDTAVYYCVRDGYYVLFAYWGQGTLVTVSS VL: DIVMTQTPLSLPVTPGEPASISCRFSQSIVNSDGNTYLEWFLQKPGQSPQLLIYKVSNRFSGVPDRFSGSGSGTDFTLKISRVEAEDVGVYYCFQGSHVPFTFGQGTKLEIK: 0.068

q: Reported OD450 nm for hAb001H2L1a (antibody, human IgG1, V domains shown, Humanized F2.169.2, H2+L1a) VH: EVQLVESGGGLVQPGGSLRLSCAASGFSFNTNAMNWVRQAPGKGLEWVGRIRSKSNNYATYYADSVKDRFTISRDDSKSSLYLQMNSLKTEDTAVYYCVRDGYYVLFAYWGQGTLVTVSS VL: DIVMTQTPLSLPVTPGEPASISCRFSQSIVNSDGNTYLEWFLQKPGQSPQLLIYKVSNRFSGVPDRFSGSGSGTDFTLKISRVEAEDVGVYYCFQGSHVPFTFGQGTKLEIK : what is it?
a: 0.063
